Molecular target: protein-protein interaction between SOS1 and KRAS G12C (Homo sapiens, UniProt P01116, C118S/C51S/C80L/G12C)
Construct: His6 (N)
Sequence (P01116 1-169 isoform P01116-2 G12C/C51S/C80L/C118S): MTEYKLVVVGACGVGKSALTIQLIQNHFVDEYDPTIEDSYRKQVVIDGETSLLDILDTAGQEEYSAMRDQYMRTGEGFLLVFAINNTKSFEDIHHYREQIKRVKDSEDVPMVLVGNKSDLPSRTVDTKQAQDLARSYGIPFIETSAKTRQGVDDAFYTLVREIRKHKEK
Assay: KRAS::SOS1 AlphaScreen binding assay
Details: Table 36
pIC50: −log10 of the molar value.
measurement_type: pIC50

// known answers, use as guide
compound | endpoint_result
C=CC(=O)N1CCN(c2cc(-c3noc([C@@]4(C)CCCc5sc(N)c(C#N)c54)n3)nc(O[C@@H](C)[C@@H]3CC[C@H](C)N3C)n2)CC1 [Ia-137] | 8.74
C=CC(=O)N1CCN(c2cc(-c3noc([C@@]4(C)CCCc5sc(N)c(C#N)c54)n3)nc(OC(C)CN3CCN(C)CC3)n2)CC1 (stereo partly shown) [Ia-66] | 8.05
C=CC(=O)N1CCN(c2cc(-c3noc(C4(C)CCC(C)c5sc(N)c(C#N)c54)n3)nc(N3CCN(C)CC3)c2)CC1C (stereo not shown) [Ia-104] | 6.20
C=CC(=O)N1CCC(Oc2cc(-c3noc(C4(C)CCCc5sc(N)c(C#N)c54)n3)nc(N3CCN(C)CC3)c2)CC1 (stereo not shown) [Ia-88] | 7.15

(I) C=CC(=O)N1[C@H](C)CN(c2cc(-c3noc([C@@]4(C)CCCc5sc(N)c(C#N)c54)n3)nc(O[C@@H](C)[C@@H]3CCCN3C)n2)C[C@@H]1C [Ia-64]
(II) C=CC(=O)N1CCC2(C1)CN(c1cc(-c3noc([C@@]4(C)CCCc5sc(N)c(C#N)c54)n3)cc(N3CCCN(C)C[C@@H]3C)n1)C2 [Ia-95]
(III) C=CC(=O)N1CCN(c2cc(-c3noc(C4(C)CCCc5sc(N)c(C#N)c54)n3)nc(N3CCN(C(C)(C)C)CC3)c2)CC1 (stereo not shown) [Ia-31]
// ranking: key=pIC50, reverse=True Would you mind listing the labels in the order asked for?
I, II, III

(1) C=CC(=O)N1CCC(Oc2cc(-c3noc(C4(C)CCC(C)c5sc(N)c(C#N)c54)n3)nc(N3CCN(C)CC3)c2)CC1 (stereo not shown) [Ia-120]
(2) C=CC(=O)N1CCC2(CC1)CN(c1cc(-c3noc([C@@]4(C)CCCc5sc(N)c(C#N)c54)n3)nc(N3CCCN(CCCOC)C[C@@H]3C)n1)C2 [Ia-92]
Could you determine which record has the numerically smaller pIC50? Candidates: 1 and 2 Identify your pick by its label.
1
(1: 6.39, 2: 7.80)

The values you see were collected from patent US20230212164A1.
